I'd be grateful if you could share measured TGI for these entries.
Tested on: ACHN renal
Test: NCI tumour cell line growth inhibition, 384-well format
Give bare numbers, in µM.

Quick one: give me TGI for each item below, same order please.
1. C=CC(=O)Nc1cccc(Oc2nc(Nc3ccc(N4CCN(C)CC4)cc3OC)ncc2Cl)c1
2. C=CC(=O)N1CC[C@H](n2nc(C#Cc3cc(OC)cc(OC)c3)c3c(N)ncnc32)C1

Solution:
1: 1.71; 2: 72.9

---

Test system: SR leukemia
Assay: NCI tumour cell line growth inhibition, 384-well format; in the data active means GI50 below about 0.43 µM; inactive means the rest
Classes to choose from: active, inactive

Past entries and their recorded results:
| Structure string | Group |
| --- | --- |
| Cc1sc2c(c1C)C(c1ccc(Cl)cc1)=N[C@@H](CC(=O)NCCCN1CCN(C)CC1)c1nnc(C)n1-2 | active |
| C=CC(=O)Nc1cccc(Oc2nc(Nc3ccc(N4CCN(C)CC4)cc3OC)ncc2Cl)c1 | inactive |

Problem: Query: recorded result category for `Nc1ncn([C@H]2C[C@H](OP(=O)(O)OC[C@H]3O[C@@H](n4cnc5c(=O)[nH]c(N)nc54)C[C@@H]3O)[C@@H](CO)O2)c(=O)n1` in this test
Solution: inactive

Problem: Which outcome was assigned to `Cc1[nH]nc2ncc(C(=O)N3CCC[C@H]3c3ccc(Cl)cc3)cc12` in this test?
Solution: inactive

The measured values listed here are drawn from PubChem BioAssay (NCI).
